- target_entity: Glucagon receptor (Homo sapiens, UniProt P47871)
- Sequence (P47871 whole entry): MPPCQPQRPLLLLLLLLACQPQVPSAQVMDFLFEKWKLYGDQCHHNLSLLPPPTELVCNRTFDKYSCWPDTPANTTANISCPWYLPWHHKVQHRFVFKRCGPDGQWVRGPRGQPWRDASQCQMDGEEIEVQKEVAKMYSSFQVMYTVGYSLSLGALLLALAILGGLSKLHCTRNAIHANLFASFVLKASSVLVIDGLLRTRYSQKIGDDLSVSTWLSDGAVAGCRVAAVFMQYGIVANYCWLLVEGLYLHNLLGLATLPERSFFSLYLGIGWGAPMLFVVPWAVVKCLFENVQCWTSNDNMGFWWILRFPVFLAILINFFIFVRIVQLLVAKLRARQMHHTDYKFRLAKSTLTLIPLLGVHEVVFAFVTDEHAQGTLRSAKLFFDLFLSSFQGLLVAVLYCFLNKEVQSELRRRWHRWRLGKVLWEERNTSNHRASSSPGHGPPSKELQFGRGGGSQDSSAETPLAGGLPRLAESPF
- experiment: In vitro binding affinity for recombinant human glucagon receptor (hGGR) in BHK cells
Please go through the items and note down their IC50.
Returns: string containing the number followed by the unit.

These solved cases illustrate the format of a correct answer.
molecule	target_entity	observed_measurement
O=C(COc1ccc(/C=N/NC(=O)c2ccc(O)c(Cl)c2)c2ccccc12)Nc1ccc(Cl)cc1	Glucagon receptor (Homo sapiens, UniProt P47871)	51.7 nM
O=C(N/N=C/c1ccc(N(C(=O)C2CCCC2)C(=O)C2CCCC2)c2ccccc12)c1ccc(O)c(Cl)c1	Glucagon receptor (Homo sapiens, UniProt P47871)	3.4 nM
N#Cc1cc(C(=O)N/N=C/c2ccc(CO)c3ccccc23)ccc1O	Glucagon receptor (Homo sapiens, UniProt P47871)	29.8 nM
O=C(N/N=C/c1ccc(CO)c2ccccc12)c1ccc(O)c(Cl)c1	Glucagon receptor (Homo sapiens, UniProt P47871)	41.1 nM
O=C(N/N=C/c1ccc(NC(=O)C2CCCC2)c2ccccc12)c1ccc(O)c(Cl)c1	Glucagon receptor (Homo sapiens, UniProt P47871)	38.8 nM
COc1cc(OCCN2CCc3ccccc3C2)ccc1/C=N/NC(=O)c1ccc(O)c(Cl)c1	Glucagon receptor (Homo sapiens, UniProt P47871)	120 nM

// each listed molecule needs a value for IC50
1. COc1cc(/C=N/NC(=O)c2ccc(O)c(Cl)c2)ccc1NC(=O)Cc1csc2ccccc12
2. CCN(CC)C(=O)Cc1ccc(/C=N/NC(=O)c2ccc(O)c(Cl)c2)c2ccccc12
3. COc1cc(/C=N/NC(=O)c2ccc(O)c(Cl)c2)ccc1NC(=O)COc1ccc(OC(F)(F)F)cc1
4. O=C(N/N=C/c1ccc(CO)c2ccccc12)c1ccc(O)c(F)c1
5. O=C(N/N=C/c1ccc(CC(=O)N2CCN(c3ccc(F)cc3)CC2)c2ccccc12)c1ccc(O)c(Cl)c1

63.2 nM
22.6 nM
73 nM
29.4 nM
12.3 nM

// each listed molecule needs a value for IC50
1. COc1cc(NC(=O)CCc2ccc(C(F)(F)F)cc2)ccc1/C=N/NC(=O)c1ccc(O)c(Cl)c1.O
2. CN(C)CCN(C)C(=O)Cc1ccc(/C=N/NC(=O)c2ccc(O)c(Cl)c2)c2ccccc12
3. O=C(N/N=C/c1ccc(O)c2ccccc12)c1ccc(O)c(Cl)c1
4. O=C(COc1ccc(/C=N/NC(=O)c2ccc(O)c(Cl)c2)c2ccccc12)NC1CCN(Cc2ccccc2)C1 (centres undefined)
5. O=C(N/N=C/c1ccc(CO)c2ccccc12)c1ccc(O)c(Cl)c1Cl

["21.2 nM", "441 nM", "203 nM", "89.3 nM", "53.8 nM"]

// each listed molecule needs a value for IC50
1. Cc1cc(C)c(C)c(Cn2ccc3c(/C=N/NC(=O)c4ccc(O)c(C#N)c4)cccc32)c1C
2. CC(C)S(=O)(=O)Cc1ccc(/C=N/NC(=O)c2ccc(O)c(C#N)c2)c2ccccc12

2.3 nM
163 nM

Entry "O=C(N/N=C/c1ccc(CN2CCN(Cc3ccc(Cl)cc3)CC2)c2ccccc12)c1ccc(O)c(Cl)c1" : reported IC50 = ?
96.7 nM

----------
- target_entity: Glucagon receptor (Homo sapiens, UniProt P47871)
- experiment: In vitro binding affinity for recombinant human glucagon receptor (hGGR) in BHK cells
- Assay type: cell-based
measured_metric: pIC50
One number for each entry, as −log10 of the molar value.

smiles_code	pIC50
COCc1ccc(/C=N/NC(=O)c2ccc(O)c(Cl)c2)c2ccccc12	7.12
Cc1cc(C)c(C)c(Cn2ccc3c(/C=N/NC(=O)c4ccc(O)c(Cl)c4)cccc32)c1C	8.28
N#Cc1cc(C(=O)N/N=C/c2cccc3c2ccn3Cc2ccc(C(F)(F)F)cc2)ccc1O	7.65

Entry "COc1cc(NC(=O)CSc2ccc(OC(F)(F)F)cc2)ccc1/C=N/NC(=O)c1ccc(O)c(Cl)c1" : reported pIC50 = ?
7.84

----------
- target_entity: Glucagon receptor (Homo sapiens, UniProt P47871)
- experiment: In vitro binding affinity for recombinant human glucagon receptor (hGGR) in BHK cells
measured_metric: pIC50
Give bare numbers, as −log10 of the molar value.

smiles_code	pIC50
N#Cc1cc(C(=O)N/N=C/c2cn(C(=O)CC3CCCC3)c3ccccc23)ccc1O	8.19
O=C(N/N=C/c1ccc(CS(=O)(=O)C2CCCC2)c2ccccc12)c1ccc(O)c(Cl)c1	6.66
COc1cc(/C=N/NC(=O)c2ccc(O)c(Cl)c2)cc(Cl)c1OCCN1CCc2ccccc2C1	6.31

// each listed compound needs a value for pIC50
1. O=C(N/N=C/c1cn(Cc2ccc(OC(F)F)cc2)c2ccccc12)c1ccc(O)c(Cl)c1
2. COc1cc(NC(=O)CCc2ccc(C(F)(F)F)cc2)ccc1/C=N/NC(=O)c1ccc(O)c(Cl)c1

1. 6.52
2. 7.47

----------
- experiment: Turnover in rat liver microsomes
- Type: ADME, Microsome
Values of Metabolism greater than or equal to 200 pmol/min/mg map to Fulfilled; values below map to Not fulfilled.

Given the entry "O=C(N/N=C/c1ccc(OCCNCc2ccccc2OC(F)(F)F)c2ccccc12)c1ccc(O)c(Cl)c1" , answer whether its Metabolism meets or surpasses 200 pmol/min/mg.
Fulfilled

----------
- experiment: Turnover in rat liver microsomes
- Assay type: ADME, Microsome
Values of Metabolism greater than or equal to 50 pmol/min/mg map to fulfilled; values below map to not fulfilled.

The following molecules have reported results that may help.
molecule	assigned_class
CC1CCCCN1C(=O)Cc1ccc(/C=N/NC(=O)c2ccc(O)c(C#N)c2)c2ccccc12 (centres undefined)	fulfilled
O=C(N/N=C/c1ccc(C(=O)NCCc2ccc(Cl)cc2)c2ccccc12)c1ccc(O)c(Cl)c1	not fulfilled
CN(C)c1ccc(C(=O)n2cc(/C=N/NC(=O)c3ccc(O)c(C#N)c3)c3ccccc32)cc1	fulfilled
CCN(CC)C(=O)c1ccc(/C=N/NC(=O)c2ccc(O)c(Cl)c2)c2ccccc12	fulfilled
CC(C)c1ccc(Cn2ccc3c(/C=N/NC(=O)c4ccc(O)c(Cl)c4)cccc32)cc1	not fulfilled

Given the entry "O=C(N/N=C/c1ccc(OCC(=O)N2CCc3ccccc3C2)c2ccccc12)c1ccc(O)c(Cl)c1" , answer whether its Metabolism meets or surpasses 50 pmol/min/mg.
fulfilled

Given the entry "O=C(N/N=C/c1cccc2c1ccn2Cc1ccc(C(F)(F)F)cc1)c1ccc(O)c(Cl)c1" , answer whether its Metabolism meets or surpasses 50 pmol/min/mg.
fulfilled

Given the entry "N#Cc1cc(C(=O)N/N=C/c2cn(C(=O)CC3CCCC3)c3ccccc23)ccc1O" , answer whether its Metabolism meets or surpasses 50 pmol/min/mg.
fulfilled

----------
- experiment: Turnover in rat liver microsomes
- Format: ADME, Microsome
Please go through the items and note down their Metabolism.
Numbers only, in pmol/min/mg.

smiles_code	observed_measurement
O=C(N/N=C/c1cccc2c(CO)cccc12)c1ccc(O)c(Cl)c1	225
NC(=O)[C@H](Cc1ccccc1)NCc1ccc(/C=N/NC(=O)c2ccc(O)c(Cl)c2)c2ccccc12	178
COc1cc(NC(=O)CSc2ccc(OC(F)(F)F)cc2)ccc1/C=N/NC(=O)c1ccc(O)c(Cl)c1	23
CC(C)(C)C(=O)Nc1ccc(/C=N/NC(=O)c2ccc(O)c(Cl)c2)c2ccccc12	45

Moving on to the next molecule.
Entry "N#Cc1cc(C(=O)N/N=C/c2cccc3c2ccn3Cc2ccc(C(F)(F)F)cc2)ccc1O" : reported Metabolism = ?
59

----------
- target_entity: Glucagon receptor (Homo sapiens, UniProt P47871)
- experiment: In vitro binding affinity for recombinant human glucagon receptor (hGGR) in BHK cells
Please go through the items and note down their pIC50.
One number for each entry, as −log10 of the molar value.

compound	target_entity	pIC50
O=C(N/N=C/c1ccc(OCCNCCc2ccc(Br)cc2)c2ccccc12)c1ccc(O)c(Cl)c1	Glucagon receptor (Homo sapiens, UniProt P47871)	7.71
O=C(N/N=C/c1ccc(C(=O)NCCc2ccc(Cl)cc2)c2ccccc12)c1ccc(O)c(Cl)c1	Glucagon receptor (Homo sapiens, UniProt P47871)	8.23
CN(C)CCN(Cc1ccccc1)C(=O)Cc1ccc(/C=N/NC(=O)c2ccc(O)c(C#N)c2)c2ccccc12	Glucagon receptor (Homo sapiens, UniProt P47871)	7.98
COc1cc(NC(=O)CCc2ccc(C(F)(F)F)cc2)ccc1/C=N/NC(=O)c1ccc(O)c(C#N)c1	Glucagon receptor (Homo sapiens, UniProt P47871)	7.80

// each listed compound needs a value for pIC50
1. O=C(N/N=C/c1cccc2c1ccn2Cc1ccc(C(F)(F)F)cc1)c1ccc(O)c(Cl)c1
2. O=C(N/N=C/c1ccc(OCCNCc2ccccc2OC(F)(F)F)c2ccccc12)c1ccc(O)c(Cl)c1
3. CCN(CC)C(=O)c1ccc(/C=N/NC(=O)c2ccc(O)c(Cl)c2)c2ccccc12
4. CCC1CCCCN1C(=O)Cc1ccc(/C=N/NC(=O)c2ccc(O)c(Cl)c2)c2ccccc12 (stereo not drawn)
5. COc1ccc2oc(C(=O)Nc3ccc(/C=N/NC(=O)c4ccc(O)c(Cl)c4)c(OC)c3)cc2c1
6. O=C(N/N=C/c1ccc(OCC(=O)N2CCc3ccccc3C2)c2ccccc12)c1ccc(O)c(Cl)c1
7. N#Cc1cc(C(=O)N/N=C/c2ccc(N(C(=O)C3CCCC3)C(=O)C3CCCC3)c3ccccc23)ccc1O

7.47
7.27
7.45
8.13
7.04
7.86
8.55

// each listed compound needs a value for pIC50
1. O=C(N/N=C/c1ccc(OCC(=O)N2CC=C(c3ccc(Br)cc3)CC2)c2ccccc12)c1ccc(O)c(Cl)c1
2. O=C(N/N=C/c1ccc(CS(=O)(=O)Cc2ccc(OC(F)(F)F)cc2)c2ccccc12)c1ccc(O)c(Cl)c1
3. O=C(N/N=C/c1ccc(C(=O)N2CCN(Cc3ccc(Cl)cc3)CC2)c2ccccc12)c1ccc(O)c(Cl)c1
4. CCN(CC)C(=O)Cn1ccc2c(/C=N/NC(=O)c3ccc(O)c(Cl)c3)cccc21
5. CC(C)(C)C(=O)Nc1ccc(/C=N/NC(=O)c2ccc(O)c(Cl)c2)c2ccccc12
6. CC(C)S(=O)(=O)c1ccc(/C=N/NC(=O)c2ccc(O)c(Cl)c2)c2ccccc12
7. CC(C)c1ccc(Cn2ccc3c(/C=N/NC(=O)c4ccc(O)c(Cl)c4)cccc32)cc1

1. 8.18
2. 8.17
3. 7.95
4. 5.60
5. 7.48
6. 6.45
7. 7.64
